Each entry below carries its reported koff.
- experimental_target: T1, human CTGF (antigen of the Biacore assays) (human, UniProt P29279 27-349)
- T1 construct: also called antigen human CTGF; human CTGF protein
- T1 sequence (looked up): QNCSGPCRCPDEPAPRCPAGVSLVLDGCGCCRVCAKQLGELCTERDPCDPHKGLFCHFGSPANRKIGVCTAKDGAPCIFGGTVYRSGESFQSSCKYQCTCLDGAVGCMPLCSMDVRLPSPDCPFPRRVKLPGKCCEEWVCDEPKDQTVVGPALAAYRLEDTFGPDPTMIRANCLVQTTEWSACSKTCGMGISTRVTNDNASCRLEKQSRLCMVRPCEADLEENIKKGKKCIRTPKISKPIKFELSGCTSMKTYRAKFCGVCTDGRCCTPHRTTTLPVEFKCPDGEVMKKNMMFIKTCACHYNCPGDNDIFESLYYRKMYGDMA
- protocol_description: Biacore, antibody captured on Protein A, CTGF in flow, 1:1 fit
measurement_type: koff (s⁻¹)

binder	unit_info	test_result
Hu164-87wl (antibody, human IgG1, lambda, V domains shown) VH: EVQLQESGPGLVKPSQTLSLTCTVSGFSISTFGVHWIRQHPGKGLEWLGVIWRRGGTDYNAAFMSRLTISKDTSKNQVSFKLSSVTAADTAVYYCARDGGFDYWGQGTTVTVSS VL: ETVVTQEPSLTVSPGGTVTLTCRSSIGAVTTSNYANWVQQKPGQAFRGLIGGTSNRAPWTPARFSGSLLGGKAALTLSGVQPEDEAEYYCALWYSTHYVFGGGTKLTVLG	s⁻¹	0.0204
Hu95-51yk (antibody, human IgG1, kappa, V domains shown) VH: EVQLVQSGAEVKKPGASVKVSCRASGFTFTNYAIHWVKQAPGQRLEWMGLVYPYTGGTAYNQKFKDKVTLTFDTSASTAYMELSSLRSEDTAVYYCARWGMIPGTNSYFDVWGQGTTVTVSS VL: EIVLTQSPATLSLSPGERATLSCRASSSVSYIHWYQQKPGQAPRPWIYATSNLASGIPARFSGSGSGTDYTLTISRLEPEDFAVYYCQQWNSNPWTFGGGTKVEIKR	s⁻¹	0.00102
Hu95-31wk (antibody, human IgG1, kappa, V domains shown) VH: EVQLVQSGAEVKKPGASVKVSCKASGFTFTNYDIHWVKQAPGQRLEWMGLVYPYNGGTAYNQKFKDKVTLTFDTSASTAYMELSSLRSEDTAVYYCARWGLIPGTTSYFDVWGQGTTVTVSS VL: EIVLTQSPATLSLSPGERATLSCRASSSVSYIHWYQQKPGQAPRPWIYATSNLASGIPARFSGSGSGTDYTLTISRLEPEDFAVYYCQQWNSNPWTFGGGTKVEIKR	s⁻¹	0.0326
Hu147-23wk (antibody, human IgG1, kappa, V domains shown) VH: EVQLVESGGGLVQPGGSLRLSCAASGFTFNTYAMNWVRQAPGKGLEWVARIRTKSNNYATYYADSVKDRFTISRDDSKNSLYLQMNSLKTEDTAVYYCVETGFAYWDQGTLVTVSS VL: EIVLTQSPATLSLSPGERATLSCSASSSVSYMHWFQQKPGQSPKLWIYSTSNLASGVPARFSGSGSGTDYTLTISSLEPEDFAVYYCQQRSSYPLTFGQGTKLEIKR	s⁻¹	0.0112
